Origin of values: patent US20240383900A1

# target-of-assay: Human CDK7/CycH/MAT1 (Homo sapiens (Human), UniProt P50613)
# Sequence (P50613 whole entry): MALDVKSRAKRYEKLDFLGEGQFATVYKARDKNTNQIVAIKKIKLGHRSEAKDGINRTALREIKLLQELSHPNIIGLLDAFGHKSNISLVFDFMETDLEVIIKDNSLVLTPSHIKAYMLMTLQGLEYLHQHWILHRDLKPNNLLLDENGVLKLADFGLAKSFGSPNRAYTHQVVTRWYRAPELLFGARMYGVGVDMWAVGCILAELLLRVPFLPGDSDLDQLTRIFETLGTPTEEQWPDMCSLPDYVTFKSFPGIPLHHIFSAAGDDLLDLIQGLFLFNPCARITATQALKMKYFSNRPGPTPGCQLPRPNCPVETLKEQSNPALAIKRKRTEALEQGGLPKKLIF
# Sequence (P51946 whole entry partner): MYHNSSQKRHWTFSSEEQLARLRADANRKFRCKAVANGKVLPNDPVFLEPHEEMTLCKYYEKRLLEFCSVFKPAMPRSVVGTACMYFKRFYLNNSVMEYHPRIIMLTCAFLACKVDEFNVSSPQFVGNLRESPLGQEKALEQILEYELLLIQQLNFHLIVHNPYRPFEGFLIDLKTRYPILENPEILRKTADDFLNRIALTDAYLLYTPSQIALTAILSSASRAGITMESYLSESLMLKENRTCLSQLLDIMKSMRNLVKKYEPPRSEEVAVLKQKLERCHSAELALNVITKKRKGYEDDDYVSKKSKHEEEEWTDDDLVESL
# Sequence (P51948 whole entry partner): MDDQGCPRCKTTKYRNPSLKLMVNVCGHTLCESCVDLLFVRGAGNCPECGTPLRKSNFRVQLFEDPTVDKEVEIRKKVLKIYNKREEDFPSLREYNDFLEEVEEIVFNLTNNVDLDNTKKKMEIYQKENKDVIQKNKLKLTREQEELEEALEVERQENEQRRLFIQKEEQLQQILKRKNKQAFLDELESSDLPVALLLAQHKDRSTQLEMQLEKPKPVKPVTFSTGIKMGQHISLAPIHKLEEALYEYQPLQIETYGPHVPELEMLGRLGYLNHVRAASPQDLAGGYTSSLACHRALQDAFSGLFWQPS
# assay: Radiometric protein kinase assay (33PanQinase Activity Assay), CDK7
# assay-setup: ATP 3 μM
pIC50: −log10 of the molar value.
parameter: pIC50

{"molecular-string": "CN(C[C@H]1CCNC[C@@H]1O)c1cc(NCc2ccc(-c3ccccn3)cc2)n2ncc(C3CC3)c2n1", "pIC50": 6.77}

[A] NC1CN(c2cc(NCc3ccc(-c4ccccn4)cc3)n3ncc(C4CC4)c3n2)C1
[B] O[C@H]1CNCC[C@@H]1CNc1cc(NCc2ccc(-c3ncccn3)cc2)n2ncc(C3CC3)c2n1
[C] O[C@H]1CNCC[C@@H]1CNc1cc(NCc2ccc(-c3ccccn3)cc2F)n2ncc(Cl)c2n1
Rank the 3 compounds: largest pIC50 first, smallest last. Enter labels, ranked according to the request. B, C, A

* * *

# target-of-assay: Human CDK12 wt/CycK (Homo sapiens (Human), UniProt Q9NYV4)
# Sequence (Q9NYV4 whole entry): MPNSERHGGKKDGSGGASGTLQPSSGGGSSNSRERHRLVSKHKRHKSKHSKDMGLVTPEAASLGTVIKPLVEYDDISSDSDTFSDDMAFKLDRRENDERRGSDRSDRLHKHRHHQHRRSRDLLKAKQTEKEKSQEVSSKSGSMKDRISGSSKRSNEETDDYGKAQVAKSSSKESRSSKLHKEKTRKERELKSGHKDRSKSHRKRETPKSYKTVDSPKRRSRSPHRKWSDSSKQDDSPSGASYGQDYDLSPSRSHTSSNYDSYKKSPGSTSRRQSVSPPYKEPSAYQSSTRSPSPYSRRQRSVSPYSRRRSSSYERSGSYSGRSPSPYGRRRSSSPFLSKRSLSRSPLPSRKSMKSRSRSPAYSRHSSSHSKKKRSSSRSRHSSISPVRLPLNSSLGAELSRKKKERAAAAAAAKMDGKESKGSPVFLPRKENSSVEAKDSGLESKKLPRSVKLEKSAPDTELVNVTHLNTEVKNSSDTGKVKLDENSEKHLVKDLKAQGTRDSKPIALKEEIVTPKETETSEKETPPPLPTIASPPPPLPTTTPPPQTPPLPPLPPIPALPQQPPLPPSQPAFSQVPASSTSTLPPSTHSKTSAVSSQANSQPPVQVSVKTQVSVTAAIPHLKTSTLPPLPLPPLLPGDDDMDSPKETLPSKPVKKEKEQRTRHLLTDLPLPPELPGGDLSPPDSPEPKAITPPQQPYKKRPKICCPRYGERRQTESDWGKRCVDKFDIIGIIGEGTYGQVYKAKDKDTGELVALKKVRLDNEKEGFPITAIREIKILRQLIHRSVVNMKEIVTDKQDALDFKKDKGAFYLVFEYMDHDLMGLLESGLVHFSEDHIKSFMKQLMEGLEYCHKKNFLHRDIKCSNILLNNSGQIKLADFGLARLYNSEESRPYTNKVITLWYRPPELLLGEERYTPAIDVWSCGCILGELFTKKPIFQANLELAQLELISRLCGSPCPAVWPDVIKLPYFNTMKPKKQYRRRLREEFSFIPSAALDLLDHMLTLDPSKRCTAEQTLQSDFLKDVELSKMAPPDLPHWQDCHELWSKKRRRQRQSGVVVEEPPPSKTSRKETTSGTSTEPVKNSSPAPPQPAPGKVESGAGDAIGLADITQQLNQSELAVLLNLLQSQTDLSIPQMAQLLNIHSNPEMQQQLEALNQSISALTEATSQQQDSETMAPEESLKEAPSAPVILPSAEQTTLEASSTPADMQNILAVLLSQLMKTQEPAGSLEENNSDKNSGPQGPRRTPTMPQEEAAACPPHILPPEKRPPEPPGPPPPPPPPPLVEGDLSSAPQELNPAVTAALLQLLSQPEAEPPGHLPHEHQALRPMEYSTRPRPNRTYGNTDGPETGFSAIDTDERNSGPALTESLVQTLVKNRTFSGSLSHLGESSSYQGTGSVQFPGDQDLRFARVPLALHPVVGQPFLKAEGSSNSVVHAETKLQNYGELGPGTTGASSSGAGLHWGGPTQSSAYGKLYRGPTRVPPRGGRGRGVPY
# Sequence (O75909 whole entry partner): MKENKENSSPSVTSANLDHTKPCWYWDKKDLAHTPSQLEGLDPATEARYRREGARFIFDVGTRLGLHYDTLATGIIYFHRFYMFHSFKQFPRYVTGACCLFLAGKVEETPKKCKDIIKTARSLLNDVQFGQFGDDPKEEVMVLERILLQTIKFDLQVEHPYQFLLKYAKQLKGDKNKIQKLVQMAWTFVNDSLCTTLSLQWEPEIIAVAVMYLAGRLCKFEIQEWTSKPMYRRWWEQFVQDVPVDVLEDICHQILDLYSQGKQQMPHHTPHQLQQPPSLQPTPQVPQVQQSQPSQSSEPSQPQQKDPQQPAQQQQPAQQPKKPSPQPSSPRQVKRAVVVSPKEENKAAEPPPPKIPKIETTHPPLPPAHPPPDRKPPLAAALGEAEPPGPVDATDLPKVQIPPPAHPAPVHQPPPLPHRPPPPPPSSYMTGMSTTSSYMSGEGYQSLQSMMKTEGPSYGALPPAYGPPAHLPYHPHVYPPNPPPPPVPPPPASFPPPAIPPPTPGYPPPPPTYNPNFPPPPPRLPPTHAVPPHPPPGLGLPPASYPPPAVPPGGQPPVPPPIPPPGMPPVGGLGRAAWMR
# assay: Radiometric protein kinase assay (33PanQinase Activity Assay), CDK12
# Type: biochemical
# assay-setup: read-out: CKD12 Biochemical Potency IC50
parameter: IC50 (nM)

[1] c1ccc(-c2ccc(CNc3cc(NC[C@H]4CNCCO4)nc4c(C5CC5)cnn34)cc2)nc1
[2] CC(C)c1cnn2c(NCc3ccc(-c4ccccn4)cc3)cc(NC[C@H]3CCNC[C@@H]3O)nc12
Would you let me know which has the greater IC50 value, 1 or 2 ? Give the label under which the chosen entry appears. 1

[a] CCc1cnn2c(NCc3ccc(-c4ccccn4)cc3F)cc(NC[C@H]3CCNC[C@@H]3O)nc12
[b] COc1cccnc1-c1ccc(CNc2cc(NC[C@H]3CCNC[C@@H]3O)nc3c(C4CC4)cnn23)cc1
Given the listed records, identify the one among a and b with higher IC50. Refer to your chosen item by its label in the answer. b

* * *

# target-of-assay: Human CDK12 wt/CycK (Homo sapiens (Human))
# assay: Radiometric protein kinase assay (33PanQinase Activity Assay), CDK12
# Assay type: biochemical
# assay-setup: ATP 0.3 μM; read-out: CDK12 IC50
# Method: A radiometric protein kinase assay (^33PanQinase® Activity Assay) was used for measuring the kinase activity of the two protein kinases (CDK12/CDK7). All kinase assays were performed in 96-well FlashPlates™ from PerkinElmer (Boston, MA, USA) in a 50 μL reaction volume. […] The reaction mixture was incubated at 30° C. for 60 min and then stopped by the addition of 2% (v/v) H3PO4. […] Incorporation of ^33Pi was determined with a microplate scintillation count (Microbeta, Wallac). […]
pIC50: −log10 of the molar value.
parameter: pIC50

{"compound": "O[C@H]1CNCC[C@@H]1CNc1cc(NCc2ccc(-c3ncccn3)cc2F)n2ncc(C3CC3)c2n1 [PPA-067]", "pIC50": 7.19}
{"compound": "c1ccc(-c2ccc(CNc3cc(NC[C@H]4CNCCO4)nc4c(C5CC5)cnn34)cc2)nc1 [PPA-032]", "pIC50": 5.94}
{"compound": "c1cnc(-c2ccc(CNc3cc(N[C@H]4CCNC4)nc4c(C5CC5)cnn34)cc2)nc1 [PPA-090]", "pIC50": 7.64}

[I] Fc1cc(-c2ccccn2)ccc1CNc1cc(N[C@H]2CCNC2)nc2c(C3CC3)cnn12 [PPA-072]
[II] O[C@H]1CNCC[C@@H]1CNc1cc(NCc2cc(F)c(-c3ccccn3)cn2)n2ncc(C3CC3)c2n1 [PPA-022]
Decide: I or II , by lowest recorded pIC50. Write down the label of the entry you select. II

[A] O[C@H]1CNCC[C@@H]1CNc1cc(NCc2ccc(-c3ccccc3)nc2)n2ncc(C3CC3)c2n1 [PPA-026]
[B] c1cnc(-c2ccc(CNc3cc(N[C@H]4CCCNC4)nc4c(C5CC5)cnn34)cc2)nc1 [PPA-089]
Input pair: A , B . Output: entry with lower pIC50. The response must carry the label of the picked entry. A
(A: 7.35, B: 7.55)

* * *

# target-of-assay: Human CDK12 wt/CycK (Homo sapiens (Human))
# assay: Radiometric protein kinase assay (33PanQinase Activity Assay), CDK12
# Assay type: biochemical
# assay-setup: read-out: CKD12 Biochemical Potency IC50
parameter: IC50 (nM)

Check out these entries, answers already filled in.
{"molecule": "C1=C(c2cc(NCc3ccc(-c4ccccn4)cc3)n3ncc(C4CC4)c3n2)CNCC1 [PPA-088]", "endpoint-result": 60}
{"molecule": "O[C@H]1CNCC[C@@H]1CNc1cc(NCc2ccc(-c3ccccn3)cc2F)n2ncc(Cl)c2n1 [PPA-074]", "endpoint-result": 23}
{"molecule": "CCc1cnn2c(NCc3ccc(-c4ccccn4)cc3)cc(NC[C@H]3CCNC[C@@H]3O)nc12 [PPA-005]", "endpoint-result": 34}
{"molecule": "O[C@H]1CNCC[C@@H]1CNc1cc(NCc2ccc(-n3cccc3)cc2)n2ncc(C3CC3)c2n1 [PPA-017]", "endpoint-result": 115}
{"molecule": "CN(C)C/C=C/C(=O)Nc1ccc(C(=O)N2CCC[C@@H](Nc3ncc(Cl)c(-c4c[nH]c5ccccc45)n3)C2)cc1 [THZ-531, reference compound]", "endpoint-result": 160}

[A] O[C@H]1CNCC[C@@H]1CNc1cc(NCc2ccc(-c3ccccn3)cc2)n2ncc(C3CC3)c2n1 [PPA-006]
[B] c1cnc(-c2ccc(CNc3cc(N[C@H]4CCCNC4)nc4c(C5CC5)cnn34)cc2)nc1 [PPA-089]
[C] O[C@H]1CNCC[C@@H]1CNc1cc(NCc2ccc(-c3ccccc3)cn2)n2ncc(C3CC3)c2n1 [PPA-034]
[D] Cc1nccn1-c1ccc(CNc2cc(NC[C@H]3CCNC[C@@H]3O)nc3c(C4CC4)cnn23)cc1 [PPA-023]
Put the items in sequence by IC50, from largest down. Write the labels out in the order the request specifies. D, C, A, B

* * *

# System: A673 cells
# assay: Cytotoxicity in A673 cells (Cell Titer Glo viability)
# Type: cell-based
# assay-setup: Homo sapiens, A673; read-out: Cellular Potency IC50 (nM) (in A673 cells)
Reported IC50 by item:
Give the quantity in nM, number only.

These solved cases illustrate the format of a correct answer.
{"molecule": "N#Cc1cnn2c(NCc3ccc(-c4ccccn4)cc3)cc(N[C@H]3CCCNC3)nc12 [PPA-092]", "endpoint-result": 0.4}
{"molecule": "C1=C(c2cc(NCc3ccc(-c4ccccn4)cc3)n3ncc(C4CC4)c3n2)CNCC1 [PPA-088]", "endpoint-result": 2.5}

So what's the measured IC50 for this one? Cc1ncccc1-c1cc(NCc2ccc(-c3ccccn3)cc2)n2ncc(C3CC3)c2n1 [PPA-096] 14.9

Data request, read-out IC50, for CC(C)c1cnn2c(NCc3ccc(-c4ccncn4)cc3)cc(NC[C@H]3CCNC[C@@H]3O)nc12 [PPA-008] 32

Can you look up the measured IC50 of O[C@H]1CNCC[C@@H]1CNc1cc(NCc2ccc(-c3cscn3)cc2)n2ncc(C3CC3)c2n1 [PPA-035] for me? 1.8

* * *

# target-of-assay: Human CDK12 wt/CycK (Homo sapiens (Human))
# assay: Radiometric protein kinase assay (33PanQinase Activity Assay), CDK12
# Type: biochemical
# assay-setup: ratio of CDK7 IC50 to CDK12 IC50; greater than 1 indicates selectivity for CDK12
parameter: CDK7/CDK12

See these solved cases before continuing.
{"molecular-string": "CCc1cnn2c(NCc3ccc(-c4ccccn4)cc3F)cc(NC[C@H]3CCNC[C@@H]3O)nc12", "CDK7/CDK12": 7.7}
{"molecular-string": "O[C@H]1CNCC[C@@H]1CNc1cc(NCc2ccc(-c3ccccn3)cc2)n2ncc(Cl)c2n1", "CDK7/CDK12": 4.3}
{"molecular-string": "O[C@H]1CNCC[C@@H]1CNc1cc(NCc2ccc(-c3ccccc3)nc2)n2ncc(C3CC3)c2n1", "CDK7/CDK12": 3.6}

[1] COc1cc(CNc2cc(NC[C@H]3CCNC[C@@H]3O)nc3c(C4CC4)cnn23)ccc1-c1ccccn1
[2] c1ccc(-c2ccc(CNc3cc(C4CNC4)nc4c(C5CC5)cnn34)cc2)nc1
[3] N#Cc1cnn2c(NCc3ccc(-c4ccccc4)cc3F)cc(N[C@H]3CCNC3)nc12
[4] O[C@H]1CNCC[C@@H]1CNc1cc(NCc2ccc(-c3ncccn3)cc2F)n2ncc(C3CC3)c2n1
Sort the compounds on CDK7/CDK12; start with the lowest figure. Use the labels to give the requested order. 1, 4, 2, 3

* * *

# target-of-assay: Human CDK12 wt/CycK (Homo sapiens (Human), UniProt Q9NYV4)
# assay: Radiometric protein kinase assay (33PanQinase Activity Assay), CDK12
# Assay type: biochemical
# assay-setup: ratio of CDK7 IC50 to CDK12 IC50; greater than 1 indicates selectivity for CDK12
parameter: CDK7/CDK12

For orientation, consider the following solved cases.
{"molecule": "CC(C)c1cnn2c(NCc3ccc(-c4ccncc4)cc3)cc(NC[C@H]3CCNC[C@@H]3O)nc12 [PPA-002]", "target-of-assay": "Human CDK12 wt/CycK (Homo sapiens (Human), UniProt Q9NYV4)", "CDK7/CDK12": 2.3}
{"molecule": "Cn1cc(-c2ccccn2)nc1CNc1cc(NC[C@H]2CCNC[C@@H]2O)nc2c(C3CC3)cnn12 [PPA-024]", "target-of-assay": "Human CDK12 wt/CycK (Homo sapiens (Human), UniProt Q9NYV4)", "CDK7/CDK12": 2.8}
{"molecule": "c1ccc(-c2ccc(CNc3cc(O[C@@H]4CCCNC4)nc4c(C5CC5)cnn34)cc2)nc1 [PPA-061]", "target-of-assay": "Human CDK12 wt/CycK (Homo sapiens (Human), UniProt Q9NYV4)", "CDK7/CDK12": 13.0}
{"molecule": "c1ccc(-c2ccc(CNc3cc(N4CC5(CNC5)C4)nc4c(C5CC5)cnn34)cc2)nc1 [PPA-084]", "target-of-assay": "Human CDK12 wt/CycK (Homo sapiens (Human), UniProt Q9NYV4)", "CDK7/CDK12": 12.5}
{"molecule": "c1ccc(-c2ccc(CNc3cc(O[C@@H]4CCNC4)nc4c(C5CC5)cnn34)cc2)nc1 [PPA-060]", "target-of-assay": "Human CDK12 wt/CycK (Homo sapiens (Human), UniProt Q9NYV4)", "CDK7/CDK12": 37.3}

[A] N#Cc1cnn2c(NCc3ccc(-c4ccccc4)cc3)cc(N[C@H]3CCNC3)nc12 [PPA-085]
[B] O[C@H]1CNCC[C@@H]1CNc1cc(NCc2ccc(-n3cccc3)cc2)n2ncc(C3CC3)c2n1 [PPA-017]
[C] c1ccc(-c2ccc(CNc3cc(N4CC5(CCNCC5)C4)nc4c(C5CC5)cnn34)cc2)nc1 [PPA-042]
Rank the items in ascending order with respect to CDK7/CDK12. Use the labels to give the requested order. B, C, A
(B: 2.9, C: 5.1, A: 29.3)
